Just for reference, paper PMC4824100 is where these values come from.

# experimentalTarget: YY1-DBD (UniProt P25490 286-414)
# Sequence (P25490 286-414): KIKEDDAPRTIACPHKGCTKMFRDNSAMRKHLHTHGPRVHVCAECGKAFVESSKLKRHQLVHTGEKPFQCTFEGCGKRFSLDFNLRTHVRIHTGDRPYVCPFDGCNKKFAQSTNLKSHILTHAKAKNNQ
# experimentSummary: ITC
propertyLabel: pKd
Value format note: pKd is -log10 of concentration (mol/L); just state the number.

Query DNAYY1 23-bp (dsDNA) DNA 1: AGGGTCTCCATTTTGAAGCATGC DNA 2: GCATGCTTCAAAATGGAGACCCT yields pKd of 6.41
